tested on: Mycobacterium avium; conditions: 104 mc'2 3
MIC overview

Guide cases for MIC, answers given:
| COMPOUND | OBSERVED |
| --- | --- |
| CSc1ccc2c(c1)N(CCC1CCCCN1C)c1ccccc1S2 (stereo not given) | < 4 µg/mL |
| CCCOc1ccc(-c2cn(CCN(CC)CC)c3ccccc3c2=O)cc1 | 256 µg/mL |
| CCCOc1ccc(-c2cn(CCN3CCCCCC3)c3ccccc3c2=O)cc1 | < 4 µg/mL |
| CCCOc1ccc(-c2cn(CCN3CCCCC3)c3ccccc3c2=O)cc1 | < 4 µg/mL |

We now examine a further compound.
# query: MIC of entry CN(C)CCCN1c2ccccc2Sc2ccc(Cl)cc21
< 4 µg/mL

====

test system: Mycobacterium avium; test: Antimycobacterial activity against Mycobacterium avium isolate MAV2 assessed as reduction in bacterial viability incubated for 3 days by MTT assay; type: organism-based; settings: 72 h
ASSAY METRIC: MIC (µg/mL)
Value expressed in µg/mL; do not type the unit.

| MOLECULE | OBSERVED |
| --- | --- |
| CC[n+]1c(-c2ccccc2)c2cc(N)ccc2c2ccc(N)cc21.[Br-] [HOMIDIUM BROMIDE] | 12.5 |
| CN(C)CCCN1c2ccccc2Sc2ccc(Cl)cc21 | 30 |
| CCCOc1ccc(-c2cn(CCN(CC)CC)c3ccccc3c2=O)cc1 | 256 |
| CSc1ccc2c(c1)N(CCC1CCCCN1C)c1ccccc1S2 (stereo unspecified) | 30 |

We now examine a further molecule.
# query: MIC of entry CCCOc1ccc(-c2cn(CCN3CCCCCC3)c3ccccc3c2=O)cc1
128

====

system: Mycobacterium avium; conditions: isolate MAV1
Description: Inhibition of multidrug resistance efflux pump in Mycobacterium avium isolate MAV1 assessed as potentiation of ofloxacin-induced antibacterial activity by measuring ofloxacin MIC at 1/2 MIC incubated for 3 days by MTT assay (Rvb = 4 ug/ml)
MIC overview

Guide cases for MIC, answers given:
| MOLECULE | MIC |
| --- | --- |
| CCCOc1ccc(-c2cn(CCN(CC)CC)c3ccccc3c2=O)cc1 | 4 µg/mL |
| CCCOc1ccc(-c2cn(CCN3CCCCCC3)c3ccccc3c2=O)cc1 | < 0.0625 µg/mL |
| CSc1ccc2c(c1)N(CCC1CCCCN1C)c1ccccc1S2 (stereo not given) [THIORIDAZINE] | < 0.0625 µg/mL |
| CCCOc1ccc(-c2cn(CCN3CCCCC3)c3ccccc3c2=O)cc1 | < 0.0625 µg/mL |

We now examine a further molecule.
# query: MIC of entry CN(C)CCCN1c2ccccc2Sc2ccc(Cl)cc21 [CHLORPROMAZINE]
< 0.0625 µg/mL

====

As a worked illustration, we turn to MIC data collected for Mycobacterium avium subsp. avium ATCC 25291.
Value expressed in µg/mL; do not type the unit.

| COMPOUND | MIC, µg/mL |
| --- | --- |
| CCCOc1ccc(-c2cn(CCN(CC)CC)c3ccccc3c2=O)cc1 | 64 |
| CSc1ccc2c(c1)N(CCC1CCCCN1C)c1ccccc1S2 (stereo not given) [THIORIDAZINE] | 32 |
| CCCOc1ccc(-c2cn(CCN3CCCCCC3)c3ccccc3c2=O)cc1 | 8 |
| CCCOc1ccc(-c2cn(CCN3CCCCC3)c3ccccc3c2=O)cc1 | 8 |

We now examine a further compound.
# query: MIC of entry CN(C)CCCN1c2ccccc2Sc2ccc(Cl)cc21 [CHLORPROMAZINE]
16
